Values compiled from paper PMC11784145.

Recorded HepDES19 SI (CC50/EC50), one value per entry.
system: HBV replication (HBV plus-polarity DNA strand); test: HBV replication inhibition, strand preferential qPCR in hepDES19 cells; assay type: cell-based, hepatitis B virus
# respond with the number and nothing more

CC(=NOCc1ccc(OCc2ccc(C(C)(C)C)cc2)cc1)c1c(C)cc(=O)n(O)c1O	6.24
CC(=NOCc1ccc(Cl)cc1)c1c(C)cc(=O)n(O)c1O	130
CC(=NOCc1ccccc1Br)c1c(C)cc(=O)n(O)c1O	34.1

Query block: Reported HepDES19 SI (CC50/EC50), compound CC(=NOCc1ccc(F)c(F)c1)c1c(C)cc(=O)n(O)c1O : ____
Result block: 157
